- ASSAY_PROCEDURE: physchem
As shown below, each of these molecules has a reported pKa value.
Write no unit; give the number alone.

Recorded results for 2 molecules are shown here.
MOLECULE	pKa
c1cc(N2CCCC2)c2ccc3c(N4CCCC4)ccnc3c2n1	11.2
c1cnc2c(c1)ccc1cccnc12 [phenanthroline, reference compound]	4.8

Then there is this molecule:
Name the recorded pKa of the item c1cnccn1 [pyrazine, reference compound] in your answer. 0.37

* * *

- ASSAY_PROCEDURE: physchem
As shown below, each of these molecules has a reported pKa value.
Write no unit; give the number alone.

Recorded results for 3 molecules are shown here.
STRUCTURE_STRING	pKa
c1cc2ccc3ccc(N4CCCN5CCCN=C54)nc3c2nc1N1CCCN2CCCN=C21	13.3
c1ccc2c(c1)-c1ccccc1C21c2ccccc2-c2ccc(N3CCCN4CCCN=C43)cc21	13.9
c1cc(-c2ccc3oc4c(-c5cccc(-c6cccc7c6sc6ccccc67)c5)ncnc4c3c2)cc(-c2cccc3c2sc2ccccc23)c1	0.6

Then there is this molecule:
Name the recorded pKa of the item "c1cc(N2CCCn3ccnc32)nc(N2CCCn3ccnc32)c1" in your answer. 9.58

FYI, the data here is from patent US20240196663A1.
